- measurement.protocol: Quantitative highthroughput screen to assess conditional lethalithy of P12 Ichikawa cells grown in RPMI1640 with dialyzed fetal bovine serum (RPMI+ds) (AID 1963880); note: nearly all actives have a fitted effect of over 35% in size
- experimental.conditions: ATP luminescence, 48 h; P12-Ichikawa viability; series mostly up to 45.8 µM
Results filed as inconclusive are left out. Active and inactive are the calls of the source. Calls come from the whole dose curve; as a rule, active = well fitted cell-killing curve with a large enough effect; inconclusive = small, poorly fitted or top-dose-only effect; inactive = flat fitted curve, though single readings scatter.
Reply using exactly one outcome from Yes = active, No = inactive

Assay outcome for COc1cc2nccc(Oc3ccc(NC(=O)NC4CC4)c(Cl)c3)c2cc1C(N)=O : what was it?
Yes

Same lookup for Cn1cc(-c2[nH]c3cc(NC(=O)[C@H](N)C4CCCCC4)cc4c3c2C=NNC4=O)cn1 , please.
Yes

Same lookup for O=C(O)c1cc(O)c2c(c1)C(=O)c1cccc(O)c1C2=O , please.
No

Same lookup for Fc1ccc(C(c2ccc(F)cc2)N2CCN(CC=Cc3ccccc3)CC2)cc1 , please.
No

Same lookup for OCCC#Cc1nc(-c2ccc(F)cc2)c(-c2ccncc2)n1CCCc1ccccc1 , please.
No

Same lookup for CN(C)CC(C)(C)CNc1nn2c(-c3ccccc3)nnc2cc1C1CCC1 , please.
Yes

Same lookup for CC(C)N(C[C@H]1O[C@@H](n2cnc3c(N)ncnc32)[C@H](O)[C@@H]1O)C1CC(CCc2nc3ccc(C(C)(C)C)cc3[nH]2)C1 (stereo partly drawn) , please.
Yes

Same lookup for CCN(C)C(=O)Oc1cccc([C@H](C)N(C)C)c1 , please.
No

Same lookup for CN(C)CCc1c[nH]c2ccc(Cn3cncn3)cc12 , please.
Yes

Same lookup for CCc1ccc(OCc2ccccc2C(=O)Nc2ccc3nc(C)cc(N)c3c2)cc1 , please.
Yes

Same lookup for C#Cc1cccc(Nc2ncnc3cc(OC)c(OCCCCCCC(=O)NO)cc23)c1 , please.
Yes

Same lookup for O=C(NCc1ccccc1)c1csc(Nc2ccncn2)n1 , please.
Yes

Same lookup for CCCCn1c(=O)n(Cc2ccccc2F)c(=O)c2[nH]c(Cc3ccc(NC(C)=O)cc3)nc21 , please.
No

Same lookup for Cc1nc(NC(=O)N2CCC[C@@H]2C(N)=O)sc1-c1ccnc(C(C)(C)C(F)(F)F)c1 , please.
Yes

Same lookup for NC(=O)c1ccc(-c2nc(-c3ccc4c(c3)OCCO4)c(-c3ccccn3)[nH]2)cc1 , please.
No

Same lookup for COC(=O)N[C@H](C(=O)N[C@@H](Cc1ccccc1)[C@@H](O)CN(Cc1ccc(-c2ccccn2)cc1)NC(=O)[C@@H](NC(=O)OC)C(C)(C)C)C(C)(C)C , please.
No

Same lookup for CCCNS(=O)(=O)Nc1ncnc(OCCOc2ncc(Br)cn2)c1-c1ccc(Br)cc1 , please.
No

Same lookup for COCCNCCCn1c(C(=O)CF)c(-c2ccc(C)cc2)c2c(N)ncnc21 , please.
No

---

- measurement.protocol: Viability qHTS for spleen associated tyrosine kinase inhibitor (SYKi) drug resistant MV4-11 cells (AID 1963824); note: nearly all actives have a fitted effect of over 35% in size
- experimental.conditions: SYKi-resistant MV4-11 viability, CellTiter-Glo, 72 h; series mostly up to 45 µM
Results filed as inconclusive are left out. Active and inactive are the calls of the source. Calls come from the whole dose curve; as a rule, active = well fitted cell-killing curve with a large enough effect; inconclusive = small, poorly fitted or top-dose-only effect, or effect the other way; inactive = no such curve, though single readings can be large or run the other way.
Reply using exactly one outcome from active, inactive

Assay outcome for C[C@@H](OC(=O)/C=C/c1ccc(O)cc1)C1=C[C@]2(C=C[C@@H]3C(C(=O)O)=CO[C@@H](O[C@@H]4O[C@H](CO[C@@H]5O[C@H](CO)[C@@H](O)[C@H](O)[C@H]5O)[C@@H](O)[C@H](O)[C@H]4O)[C@@H]32)OC1=O : what was it?
inactive

Same lookup for C/C=C/C1OC2=C(C(=O)OC2(C)O)C(O)C1O (centres undefined) , please.
inactive

Same lookup for Clc1ccc(Nc2nnc(Cc3ccncc3)c3ccccc23)cc1 , please.
active

Same lookup for CCC[C@H](N[C@@H](C)C(=O)N1[C@@H]2CCCC[C@H]2C[C@H]1C(=O)O)C(=O)OCC , please.
inactive
